# target_system: recombinant ROR1 (Homo sapiens (Human), UniProt Q01973 30-406)
# Sequence (Q01973 30-406 limits assumed): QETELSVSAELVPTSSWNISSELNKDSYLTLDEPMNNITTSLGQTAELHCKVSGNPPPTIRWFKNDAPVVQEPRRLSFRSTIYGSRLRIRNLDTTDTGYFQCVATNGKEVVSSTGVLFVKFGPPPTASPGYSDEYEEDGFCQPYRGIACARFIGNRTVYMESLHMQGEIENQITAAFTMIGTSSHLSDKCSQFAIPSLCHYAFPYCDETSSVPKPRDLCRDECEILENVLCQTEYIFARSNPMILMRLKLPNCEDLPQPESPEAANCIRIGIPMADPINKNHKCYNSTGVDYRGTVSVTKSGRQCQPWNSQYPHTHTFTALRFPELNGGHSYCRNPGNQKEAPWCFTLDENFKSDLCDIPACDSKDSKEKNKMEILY
# experiment: dot blot on nylon membrane, anti-human IgG-HRP
measured_property: binding result

h6E6-029 (antibody, human IgG1, V domains shown, human IgG1; also called clone 29) VH: EVQLVESGGGLVKPGGSLRLSCAASGFTFSHYGVSWVRQAPGKGLEWVSTISSGGGYTHYAQSVKGRFTISRDNAKNSLYLQMNSLRAEDTAVYYCARHPRDFSYAQDYWGQGTTVTVSS VL: EIVMTQSPATLSVSPGERATLSCKASQDVGHYVAWYQQKPGQAPRLLIYWASTRHTGIPARFSGSGSGTEFTLTISSLQSEDFAVYYCQQYNIYPWTFGQGTKVEIK
no binding
h6E6-077 (antibody, human IgG1, V domains shown, human IgG1; also called clone 77) VH: EVQLVESGGGLVKPGGSLRLSCAASGFTFSHYGTSWVRQAPGKGLEWVSTISSGGGYTHYAPSVKGRFTISRDNAKNSLYLQMNSLRAEDTAVYYCARHPRDFSYAIDYWGQGTTVTVSS VL: EIVMTQSPATLSVSPGERATLSCKASQDVGHYVAWYQQKPGQAPRLLIYWASTRATGIPARFSGSGSGTEFTLTISSLQSEDFAVYYCQQYNIYPWTFGQGTKVEIK
no binding
h6E6-102 (antibody, human IgG1, V domains shown, human IgG1; also called clone 102) VH: EVQLVESGGGLVKPGGSLRLSCAASGFTFSKYGLSWVRQAPGKGLEWVSTISSGGGYTHYVESVKGRFTISRDNAKNSLYLQMNSLRAEDTAVYYCARHPRDFSYASDYWGQGTTVTVSS VL: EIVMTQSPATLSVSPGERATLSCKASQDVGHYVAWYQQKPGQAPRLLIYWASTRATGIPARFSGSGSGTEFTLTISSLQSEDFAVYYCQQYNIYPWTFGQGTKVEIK
no binding
